The origin of these recorded values is ChEMBL document CHEMBL1821672.

Assay: Apparent permeability from basolateral to apical side of human Caco2 cells
Assay type: ADME, cell-based
Conditions: caco-2
Measured metric: Papp B→A (×10⁻⁶ cm/s)
Numbers only, in ×10⁻⁶ cm/s.

**Query** Would you kindly share the measured Papp B→A for Cc1ccc(C(=O)NC2CC2)cc1-c1ccc2c(c1)NC(=O)C21CCS(=O)(=O)CC1 ?
**Result** 25

----------
Assay: Metabolic stability in human hepatic microsomes assessed as compound turnover at 5 uM in absence of NADPH after 30 mins
Format: ADME
Conditions: liver microsomes, read-out: Activity
Measured metric: metabolised at 0.5 h, 5 µM (%)
Numbers only, in %.

structure_smiles_string=Cc1ccc(C(=O)Nc2ccon2)cc1-c1ccc2c(c1)NC(=O)C21CCC(F)(F)CC1 reported=17
structure_smiles_string=Cc1ccc(C(=O)NC2CC2)cc1-c1ccc2c(n1)NC(=O)C21CCCC1 reported=16
structure_smiles_string=Cc1ccc(C(=O)NC2CC2)cc1-c1ccc2c(c1)NC(=O)C21CCS(=O)(=O)CC1 reported=11
structure_smiles_string=Cc1ccc(C(=O)NC2CC2)cc1-c1cnc2c(c1)NC(=O)C21CCCC1 reported=10

Items follow; give metabolised at 0.5 h, 5 µM for each.
1. Cc1ccc(C(=O)NC2CC2)cc1-c1ccc2c(c1)NC(=O)[C@]21CC[C@H](O)CC1
2. Cc1ncc(C(=O)NC2CC2)cc1-c1ccc2c(c1)NC(=O)C21CCCC1

**Result**
61
11

----------
Assay: AUC (0 to infinity) in rat at 1 mg/kg, iv
Format: ADME, organism-based
Parameters: time infinity, dose 1 mg/kg, route intravenous
Conditions: plasma
Measured metric: AUC(0-inf) (ng·h/mL)
One number for each entry, in ng·h/mL.

Examples with answers:
structure_smiles_string=Cc1ccc(C(=O)NC2CC2)cc1-c1ccc2c(c1)NC(=O)C21CCOCC1 measured_metric=AUC(0-inf) reported=2770
structure_smiles_string=Cc1ccc(C(=O)NC2CC2)cc1-c1ccc2c(c1)NC(=O)C21CCN(C)CC1 measured_metric=AUC(0-inf) reported=226
structure_smiles_string=Cc1ccc(C(=O)NC2CC2)cc1-c1ccc2c(c1)NC(=O)C21CCC(F)(F)CC1 measured_metric=AUC(0-inf) reported=5020

Proceeding to the next molecule to report its AUC(0-inf).
**Query** Would you kindly share the measured AUC(0-inf) for Cc1ccc(C(=O)NC2CC2)cc1-c1cnc2c(c1)NC(=O)C21CCCC1.Cl ?
**Result** 1850

----------
Assay: Metabolic stability in human hepatic microsomes assessed as compound turnover at 5 uM in presence of NADPH after 30 mins
Assay type: ADME
Conditions: liver microsomes, read-out: Activity
Label Criterion met when metabolised at 0.5 h, 5 µM is strictly below 40%; otherwise label Criterion not met.

Answered examples (6):
structure_smiles_string=Cc1ccc(C(=O)NC2CC2)cc1-c1ccc2c(c1)NC(=O)C21CCC(F)(F)CC1 label_value="Criterion met"
structure_smiles_string=Cc1ccc(C(=O)NC2CC2)cc1-c1ccc2c(c1)NC(=O)C21CCOCC1 label_value="Criterion met"
structure_smiles_string=Cc1ccc(C(=O)NC2CC2)cc1-c1ccc2c(c1)NC(=O)C21CCN(C)CC1 label_value="Criterion met"
structure_smiles_string=Cc1ccc(C(=O)Nc2ccon2)cc1-c1ccc2c(c1)NC(=O)C21CCOCC1 label_value="Criterion not met"
structure_smiles_string=Cc1ccc(C(=O)NC2CC2)cc1-c1ccc2c(c1)NC(=O)[C@]21CC[C@@H](O)CC1 label_value="Criterion not met"
structure_smiles_string=Cc1ccc(C(=O)NC2CC2)cc1-c1ccc2c(c1)NC(=O)C21CCS(=O)(=O)CC1 label_value="Criterion met"

Please examine the following record next.
**Query** Lab log: compare recorded metabolised at 0.5 h, 5 µM with 40%; is it strictly lower for Cc1ccc(C(=O)Nc2ccon2)cc1-c1ccc2c(c1)NC(=O)C21CCC(F)(F)CC1 ?
**Result** Criterion met
